Target: Adenosine kinase (Homo sapiens)
Experiment: Inhibition of adenosine phosphorylation in confluent IMR-32 (human neuroblastoma) cells.
Assay type: functional, cell-based
# maps each entry to its IC50
Give just the numeric value; nM need not be written.

Some entries whose results are on file:
The observed IC50 for Nc1ncnc2nc(-c3ccc(N4CCOCC4)cc3)cnc12 when tested with Adenosine kinase (Homo sapiens) stands at 1000

The observed IC50 for Nc1ncnc2nc(-c3ccc(N4CCOCC4)nc3)cc(-c3cccc(Br)c3)c12 when tested with Adenosine kinase (Homo sapiens) stands at 50

The observed IC50 for Cc1ccc(-c2cc3c(N)ncnc3nc2-c2ccc(N(C)C)cc2)cc1 when tested with Adenosine kinase (Homo sapiens) stands at 500

Next:
The observed IC50 for CN(C)c1ccc(-c2cc(-c3ccccc3)c3c(N)ncnc3n2)cc1 when tested with Adenosine kinase (Homo sapiens) stands at 467

The observed IC50 for NC[C@H]1O[C@@H](n2cnc3c(N)ncnc32)[C@H](O)[C@@H]1O when tested with Adenosine kinase (Homo sapiens) stands at 6330

The observed IC50 for COC(=O)c1cccc(-c2cc3c(N)ncnc3nc2-c2ccc(N(C)C)cc2)c1 when tested with Adenosine kinase (Homo sapiens) stands at 700

###

Biological target: Adenosine kinase (Homo sapiens, UniProt P55263)
Sequence (P55263 whole entry): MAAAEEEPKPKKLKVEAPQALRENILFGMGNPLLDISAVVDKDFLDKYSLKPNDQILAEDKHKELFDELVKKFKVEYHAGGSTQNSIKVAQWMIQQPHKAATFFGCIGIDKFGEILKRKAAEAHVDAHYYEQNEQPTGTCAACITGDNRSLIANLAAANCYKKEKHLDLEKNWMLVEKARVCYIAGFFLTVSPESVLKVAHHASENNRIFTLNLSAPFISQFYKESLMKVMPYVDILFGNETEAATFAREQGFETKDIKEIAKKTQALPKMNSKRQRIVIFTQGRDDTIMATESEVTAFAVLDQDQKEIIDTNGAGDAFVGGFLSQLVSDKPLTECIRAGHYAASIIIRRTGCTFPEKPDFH
Experiment: Inhibition of adenosine phosphorylation in confluent IMR-32 (human neuroblastoma) cells.
Property label: IC50 (nM)
Give just the numeric value; nM need not be written.

get_value(item= C[C@H]1O[C@@H](n2cc(-c3ccccc3)c3c(Nc4ccc(F)cc4)ncnc32)[C@H](O)[C@@H]1O , readout=IC50) returns 134

Next:
get_value(item= COc1ccc(-c2cc3c(N)ncnc3nc2-c2ccc(N(C)C)cc2)cc1 , readout=IC50) returns 567

get_value(item= CN(C)c1ccc(-c2cnc3c(N)ncnc3n2)cc1 , readout=IC50) returns 3600

###

Target: Adenosine kinase (Homo sapiens, UniProt P55263)
Assay: Inhibition of adenosine phosphorylation in confluent IMR-32 (human neuroblastoma) cells.
# maps each entry to its pIC50
For clarity, pIC50 is expressed as the negative log10 of concentration in mol/L.

The observed pIC50 for CN(C)c1ccc(-c2cc(-c3cccc(Br)c3)c3c(N)ncnc3n2)cn1 when tested with Adenosine kinase (Homo sapiens, UniProt P55263) stands at 7.49

The observed pIC50 for CN(C)c1ccc(-c2cc(-c3cccc(Br)c3)c3c(N)ncnc3n2)cc1 when tested with Adenosine kinase (Homo sapiens, UniProt P55263) stands at 6.78

The observed pIC50 for CN(C)c1ccc(-c2cc(C3CCCCC3)c3c(N)ncnc3n2)cc1 when tested with Adenosine kinase (Homo sapiens, UniProt P55263) stands at 6.33

The observed pIC50 for CN(C)c1ccc(-c2nc3ncnc(N)c3nc2-c2ccccc2)cc1 when tested with Adenosine kinase (Homo sapiens, UniProt P55263) stands at 6.48

The observed pIC50 for Nc1ncnc(N[C@@H]2O[C@H](CO)[C@@H](O)[C@H]2O)c1[N+](=O)[O-] when tested with Adenosine kinase (Homo sapiens, UniProt P55263) stands at 4.59

###

# maps each entry to its pIC50
Molecular target: Adenosine kinase (Homo sapiens)
Test: Inhibition of adenosine phosphorylation in confluent IMR-32 (human neuroblastoma) cells.
pIC50: −log10 of the molar value.

get_value(item= Nc1ncnc2nc(-c3ccccc3)cnc12 , readout=pIC50) returns < 5.00

get_value(item= CN(C)c1ccc(-c2ccc3c(N)ncnc3n2)cc1 , readout=pIC50) returns < 5.00

get_value(item= COc1ccc(-c2cnc3c(N)ncnc3n2)cc1 , readout=pIC50) returns < 5.00

get_value(item= Nc1ncnc2nc(-c3ccc([N+](=O)[O-])cc3)cnc12 , readout=pIC50) returns < 5.00

get_value(item= Nc1ccc(-c2cnc3c(N)ncnc3n2)cc1 , readout=pIC50) returns < 5.00

get_value(item= CN(C)c1ccc(-c2nc3ncnc(N)c3cc2-c2ccc(C(C)(C)C)cc2)cc1 , readout=pIC50) returns < 6.00
